System: PAMPA
Conditions: Papp (x 10^-6 cm/s) / [row 8]; UV detection
Starred links: 1 amine or outer side, 2 acyl side, 3 side chain; linkers in the order of their positions; H or OH if unused. Non-standard residues stand in square brackets, D forms with d. Residues, ends and D or L forms follow the SMILES beside them. *: point of attachment. X2 = CCCCC[C@H](O*)C(=O)OCc1ccccc1; X1 = CCCCC[C@H](O[*:1])C(=O)[*:2]; Ahp(2) = CCCCC[C@H](N)C(=O)O; dNMeA = CN[C@H](C)C(=O)O; Boc = CC(C)(C)OC(=O)*; OBn = c1ccc(CO*)cc1
Please use true (1) for Papp under 3 ×10⁻⁶ cm/s and false (0) for everything else, ties included.

[
  {
    "COMPOUND": "CCCCC[C@H](NC(=O)[C@@H](C)N(C)C(=O)OC(C)(C)C)C(=O)N(C)[C@H](C)C(=O)N[C@H](CCCCC)C(=O)N(C)[C@H](C)C(=O)O[C@@H](CCCCC)C(=O)N(C)[C@H](C)C(=O)O[C@@H](CCCCC)C(=O)OCc1ccccc1 (stereo in doubt) [Compound L2.2]",
    "EXPERIMENTAL_SYSTEM": "PAMPA",
    "CAT": "true (1)"
  },
  {
    "COMPOUND": "CCCCC[C@H](NC(=O)[C@@H](C)N(C)C(=O)[C@H](CCCCC)NC(=O)[C@@H](C)N(C)C(=O)[C@H](CCCCC)NC(=O)[C@@H](C)N(C)C(=O)[C@H](CCCCC)NC(=O)[C@@H](C)N(C)C(=O)OC(C)(C)C)C(=O)OCc1ccccc1 [Compound L2.5] (Boc-[dNMeA][Ahp(2)][dNMeA][Ahp(2)][dNMeA][Ahp(2)][dNMeA][Ahp(2)]-OBn)",
    "EXPERIMENTAL_SYSTEM": "PAMPA",
    "CAT": "true (1)"
  },
  {
    "COMPOUND": "CCCCC[C@H](NC(=O)[C@@H](C)N(C)C(=O)OC(C)(C)C)C(=O)N(C)[C@H](C)C(=O)O[C@@H](CCCCC)C(=O)N(C)[C@H](C)C(=O)O[C@@H](CCCCC)C(=O)N(C)[C@H](C)C(=O)O[C@@H](CCCCC)C(=O)OCc1ccccc1 [Compound L2.1] (Boc-[dNMeA][Ahp(2)][dNMeA][X1][dNMeA][X1][dNMeA]-X2)",
    "EXPERIMENTAL_SYSTEM": "PAMPA",
    "CAT": "false (0)"
  }
]

Q: Bench note: check whether CCCCC[C@H](OC(=O)[C@@H](C)N(C)C(=O)[C@H](CCCCC)OC(=O)[C@@H](C)N(C)C(=O)[C@H](CCCCC)OC(=O)[C@@H](C)N(C)C(=O)[C@H](CCCCC)OC(=O)[C@@H](C)N(C)C(=O)OC(C)(C)C)C(=O)OCc1ccccc1 [Compound L1.4] shows Papp below 3 ×10⁻⁶ cm/s
A: true (1)

// data source = paper PMC11995216
